# human Gal-3 (hGal-3) (Homo sapiens (Human), UniProt P17931): pIC50 values follow
# Sequence (P17931 whole entry): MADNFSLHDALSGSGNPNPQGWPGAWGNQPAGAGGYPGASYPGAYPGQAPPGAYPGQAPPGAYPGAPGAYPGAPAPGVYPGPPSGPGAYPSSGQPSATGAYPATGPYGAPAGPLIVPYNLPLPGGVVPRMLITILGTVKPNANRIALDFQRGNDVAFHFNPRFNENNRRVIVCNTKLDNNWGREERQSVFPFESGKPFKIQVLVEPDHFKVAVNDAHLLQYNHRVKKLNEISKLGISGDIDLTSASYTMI
Hey, just a heads up that pIC50 is the negative log base 10 of the concentration in molar.

The molecule "CO[C@@H]1[C@@H](n2cc(-c3ccc(F)c(F)c3F)nn2)[C@@H](O)[C@@H](CO)O[C@@H]1Cc1cc(C(C)(C)C)no1" , when measured on human Gal-3 (hGal-3) (Homo sapiens (Human), UniProt P17931), yielded pIC50 of 7.24

The molecule CCO[C@@H]1[C@@H](n2cc(-c3cc(F)c(F)c(F)c3)nn2)[C@@H](O)[C@@H](CO)O[C@@H]1CC1CC(C2CCN(C(=O)OC(C)(C)C)CC2)=NO1 (mixture of isomers) , when measured on human Gal-3 (hGal-3) (Homo sapiens (Human), UniProt P17931), yielded pIC50 of 6.52

The molecule CO[C@@H]1[C@@H](n2cc(-c3cc(F)c(F)c(F)c3)nn2)[C@@H](O)[C@@H](CO)O[C@@H]1Cc1cc(C2CNC(=O)C2)no1 (stereo partly drawn) , when measured on human Gal-3 (hGal-3) (Homo sapiens (Human), UniProt P17931), yielded pIC50 of 6.85

The molecule CO[C@@H]1[C@@H](n2cc(-c3cc(F)c(F)c(F)c3)nn2)[C@@H](O)[C@@H](CO)O[C@@H]1C[C@@H]1CC(c2cc[nH]c(=O)c2)=NO1 [Example 2.07a] , when measured on human Gal-3 (hGal-3) (Homo sapiens (Human), UniProt P17931), yielded pIC50 of 6.59

The molecule "O=C1CCC(c2cc(C[C@H]3O[C@H](CO)[C@H](O)[C@H](n4cc(-c5cc(F)c(F)c(F)c5)nn4)[C@H]3O)no2)CC1" , when measured on human Gal-3 (hGal-3) (Homo sapiens (Human), UniProt P17931), yielded pIC50 of 6.72

The molecule CO[C@@H]1[C@@H](n2cc(-c3cc(F)c(F)c(F)c3)nn2)[C@@H](O)[C@@H](CO)O[C@@H]1CC1=NOC(C2CCNCC2)C1 (mixture of isomers) , when measured on human Gal-3 (hGal-3) (Homo sapiens (Human), UniProt P17931), yielded pIC50 of 5.94

The molecule "CO[C@@H]1[C@@H](n2cc(-c3cc(F)c(F)c(F)c3)nn2)[C@@H](O)[C@@H](CO)O[C@@H]1CC1=NO[C@@H](C2CCCCC2)C1" , when measured on human Gal-3 (hGal-3) (Homo sapiens (Human), UniProt P17931), yielded pIC50 of 6.06

The molecule "CO[C@@H]1[C@@H](n2cc(-c3ccc(C)c(F)c3)nn2)[C@@H](O)[C@@H](CO)O[C@@H]1Cc1cc(C2CCOCC2)on1" , when measured on human Gal-3 (hGal-3) (Homo sapiens (Human), UniProt P17931), yielded pIC50 of 6.74

The molecule "CO[C@@H]1[C@@H](n2cc(-c3cc(F)c(F)c(F)c3)nn2)[C@@H](O)[C@@H](CO)O[C@@H]1Cc1cc(C2(O)CCC2)no1" , when measured on human Gal-3 (hGal-3) (Homo sapiens (Human), UniProt P17931), yielded pIC50 of 6.31

The molecule COc1ccc(C2=NOC(C[C@@H]3O[C@H](CO)[C@H](O)[C@H](n4cc(-c5cc(F)c(F)c(F)c5)nn4)[C@H]3O)C2)cc1 (stereo partly drawn) , when measured on human Gal-3 (hGal-3) (Homo sapiens (Human), UniProt P17931), yielded pIC50 of 5.21

The molecule "CO[C@@H]1[C@@H](n2cc(-c3cc(F)c(F)c(F)c3)nn2)[C@@H](O)[C@@H](CO)O[C@@H]1Cc1cc(C2CCN(C(C)=O)CC2)on1" , when measured on human Gal-3 (hGal-3) (Homo sapiens (Human), UniProt P17931), yielded pIC50 of 7.34

The molecule "CO[C@@H]1[C@@H](n2cc(-c3cc(F)cc(Cl)c3)nn2)[C@@H](O)[C@@H](CO)O[C@@H]1Cc1cc(C(C)(C)C)on1" , when measured on human Gal-3 (hGal-3) (Homo sapiens (Human), UniProt P17931), yielded pIC50 of 6.40

Hey, just so you know, these numbers are from patent US12319672B2.
